# target_system: Carbonic anhydrase 1 (Homo sapiens)
# Sequence (P00915 whole entry): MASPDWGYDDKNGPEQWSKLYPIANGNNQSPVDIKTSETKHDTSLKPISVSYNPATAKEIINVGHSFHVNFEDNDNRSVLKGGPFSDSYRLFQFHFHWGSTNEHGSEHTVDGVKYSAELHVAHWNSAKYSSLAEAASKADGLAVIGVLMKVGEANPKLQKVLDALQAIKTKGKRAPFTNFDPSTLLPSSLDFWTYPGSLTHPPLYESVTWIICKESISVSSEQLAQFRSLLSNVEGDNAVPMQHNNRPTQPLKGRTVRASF
measurement_kind: Ki (µM)
Numbers only; they are read as µM.

The compound "Cc1ccc(C(=O)C(O)(O)C(F)(F)F)cc1" , tested on Carbonic anhydrase 1 (Homo sapiens), showed Ki of 410
